target: Cytochrome P450 2C9 (Homo sapiens, UniProt P11712); test: Inhibition of recombinant human Cytochrome P450 2C9
Sequence (P11712 whole entry): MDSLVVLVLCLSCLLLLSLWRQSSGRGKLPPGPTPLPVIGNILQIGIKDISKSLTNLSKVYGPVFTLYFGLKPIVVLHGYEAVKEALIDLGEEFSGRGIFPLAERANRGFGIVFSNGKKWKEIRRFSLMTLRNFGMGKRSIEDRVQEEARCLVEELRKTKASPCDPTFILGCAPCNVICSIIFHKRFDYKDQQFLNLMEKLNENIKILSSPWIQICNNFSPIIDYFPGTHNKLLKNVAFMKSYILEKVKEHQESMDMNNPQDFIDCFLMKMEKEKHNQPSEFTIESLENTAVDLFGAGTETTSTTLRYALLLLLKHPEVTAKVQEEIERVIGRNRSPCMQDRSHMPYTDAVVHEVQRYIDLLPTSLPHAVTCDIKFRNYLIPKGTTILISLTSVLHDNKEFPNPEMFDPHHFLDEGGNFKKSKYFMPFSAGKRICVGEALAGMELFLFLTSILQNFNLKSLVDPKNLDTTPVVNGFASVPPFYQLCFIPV
Assay Readout: IC50 (µM)

Structure As Smiles: C[C@H](NC(=O)/C=C/c1ccccc1)c1cccc(N2CCOCC2)c1
Observed Result: 5.3

====

experiment: Plasma clearance in rat after i.v. dose of 1 mg/kg; format: ADME, organism-based; design: dose 1 mg/kg, route intravenous; conditions: iv
Assay Readout: clearance (mL/min/kg)

Structure As Smiles: C[C@H](NC(=O)/C=C/c1ccc(F)cc1)c1ccc(F)c(N2CCOCC2)c1
Assay Readout: clearance
Observed Result: 17.8

====

target: Cytochrome P450 3A4 (Homo sapiens); format: ADME
pIC50: −log10 of the molar value.

Structure As Smiles: C[C@H](NC(=O)/C=C/c1ccccc1)c1cccc(N2CCOCC2)c1
pIC50: 4.57

====

pIC50: −log10 of the molar value.
Record: pIC50 reported on Cytochrome P450 3A4 (Homo sapiens, UniProt P08684).
Sequence (P08684 whole entry): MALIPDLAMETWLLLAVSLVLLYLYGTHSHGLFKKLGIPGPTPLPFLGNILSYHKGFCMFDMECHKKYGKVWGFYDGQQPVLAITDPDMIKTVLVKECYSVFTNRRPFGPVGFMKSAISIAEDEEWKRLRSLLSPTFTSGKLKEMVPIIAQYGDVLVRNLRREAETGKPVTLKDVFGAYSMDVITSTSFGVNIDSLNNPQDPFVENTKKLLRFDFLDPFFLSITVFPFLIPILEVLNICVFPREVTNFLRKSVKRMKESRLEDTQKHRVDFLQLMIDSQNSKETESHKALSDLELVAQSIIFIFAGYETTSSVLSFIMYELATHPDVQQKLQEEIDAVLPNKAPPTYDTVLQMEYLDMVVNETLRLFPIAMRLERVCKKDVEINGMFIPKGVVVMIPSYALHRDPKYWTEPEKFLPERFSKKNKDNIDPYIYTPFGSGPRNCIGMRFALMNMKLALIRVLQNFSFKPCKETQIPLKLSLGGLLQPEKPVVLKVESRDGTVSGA

Structure As Smiles: C[C@H](NC(=O)/C=C/c1ccccc1)c1cccc(N2CCOCC2)c1
pIC50: 4.02
//
Structure As Smiles: C[C@H](NC(=O)/C=C/c1ccc(F)cc1)c1ccc(F)c(N2CCOCC2)c1
pIC50: 4.74

====

experiment: Vd compound was determined in rat after i.v. dose of 1 mg/kg; assay type: ADME, organism-based; parameters: dose 1 mg/kg, route intravenous; details: in vivo, iv
Assay Readout: Vd (L/kg)

Structure As Smiles: C[C@H](NC(=O)/C=C/c1ccc(F)cc1)c1ccc(F)c(N2CCOCC2)c1
Assay Readout: Vd
Unit Name: L/kg
Observed Result: 3.3

====

Entries and their IC50
biological target: UniProt P08684

Structure As Smiles: C[C@H](NC(=O)/C=C/c1ccccc1)c1cccc(N2CCOCC2)c1
Target Entity: UniProt P08684
IC50: 22 µM

Structure As Smiles: C[C@H](NC(=O)/C=C/c1ccc(F)cc1)c1ccc(F)c(N2CCOCC2)c1
Target Entity: UniProt P08684
IC50: 19 µM
